Here, each record is paired with measured FACS Binding Geomean data.
Molecular target: T1, human ASGR-1 mutant construct H203 (human, UniProt P07306 1-291)
T1 construct: Arg/Glu scanning: non-arginine residues were changed to arginine; Transiently expressed on CHO-S cells
T1 sequence: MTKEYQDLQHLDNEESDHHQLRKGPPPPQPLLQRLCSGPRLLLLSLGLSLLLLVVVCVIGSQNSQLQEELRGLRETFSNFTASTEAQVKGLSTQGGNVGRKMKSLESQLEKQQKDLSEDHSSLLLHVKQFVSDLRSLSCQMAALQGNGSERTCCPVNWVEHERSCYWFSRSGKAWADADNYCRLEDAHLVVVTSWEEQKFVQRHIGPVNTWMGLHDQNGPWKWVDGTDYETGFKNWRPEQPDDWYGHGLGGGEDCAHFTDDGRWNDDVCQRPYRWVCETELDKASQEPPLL
Assay: FACS, transfected CHO-S cells, mAb 5 ug/ml
Write the value as a bare number.

Worked cases, answers included:
Exam item: So what's the measured FACS Binding Geomean for this one? 60C12 (antibody, V domains shown, mAb) VH: QVQLVESGGGVVQPGRSLRLSCAASGFTFSSYGMHWVRQAPGKGLEWVAVIWYDGSNKYYVDSVKGRFTISRDNSKNTLYLQMNSLRAEDTAVYYCARRYSRSWTGGMDVWGQGTTVTVSS VL: DIVMTQTPLSLSVTPGQPASISCKSSQSLLHSEGKTYLYWYLQKPGQPPQFLIYEVSNRFSGVPDRFSGSGSGTDFTLKISRVEAEDVGIYYCMQSIKYPLTFGGGTKVEIK
Marked response: 19800

Exam item: For the binder shown here, 151B9 (antibody, V domains shown, mAb) VH: EVQLLESGGGLVQPGGSLRLSCAASGFTFSSYAMSWVRQAPGKGLEWVSVISGGGSSTYYADSVKGRFTISRDNSKNTLYLQMNSLRAEDTAVYYCAKWRGNPTDYGMDVWGQGTTVTVSS VL: SYELTQPPSVSVSPGQTASIACSGDNLGDKYASWYQQKPGQSPVLVIYQDSKRPSGIPERFSGSNSGNTATLTISGIQAMDEADYYCQAWDSSTVVFGGGTKLTVL , give the reported FACS Binding Geomean.
Marked response: 9740

// moving on: another record for FACS Binding Geomean
Exam item: So what's the measured FACS Binding Geomean for this one? 190F8 (antibody, V domains shown, mAb) VH: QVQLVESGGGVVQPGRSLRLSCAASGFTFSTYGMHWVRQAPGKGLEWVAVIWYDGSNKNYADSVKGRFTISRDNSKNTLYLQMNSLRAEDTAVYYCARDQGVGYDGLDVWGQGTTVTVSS VL: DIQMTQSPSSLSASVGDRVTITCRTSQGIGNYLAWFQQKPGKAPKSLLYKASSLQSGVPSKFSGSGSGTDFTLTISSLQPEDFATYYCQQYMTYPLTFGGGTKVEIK
Marked response: 15100
